Tested target: Rho-associated protein kinase 1 (Homo sapiens);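 note: measured within a broad kinome-wide panel profiling many kinases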
Sequence (Q13464 whole entry): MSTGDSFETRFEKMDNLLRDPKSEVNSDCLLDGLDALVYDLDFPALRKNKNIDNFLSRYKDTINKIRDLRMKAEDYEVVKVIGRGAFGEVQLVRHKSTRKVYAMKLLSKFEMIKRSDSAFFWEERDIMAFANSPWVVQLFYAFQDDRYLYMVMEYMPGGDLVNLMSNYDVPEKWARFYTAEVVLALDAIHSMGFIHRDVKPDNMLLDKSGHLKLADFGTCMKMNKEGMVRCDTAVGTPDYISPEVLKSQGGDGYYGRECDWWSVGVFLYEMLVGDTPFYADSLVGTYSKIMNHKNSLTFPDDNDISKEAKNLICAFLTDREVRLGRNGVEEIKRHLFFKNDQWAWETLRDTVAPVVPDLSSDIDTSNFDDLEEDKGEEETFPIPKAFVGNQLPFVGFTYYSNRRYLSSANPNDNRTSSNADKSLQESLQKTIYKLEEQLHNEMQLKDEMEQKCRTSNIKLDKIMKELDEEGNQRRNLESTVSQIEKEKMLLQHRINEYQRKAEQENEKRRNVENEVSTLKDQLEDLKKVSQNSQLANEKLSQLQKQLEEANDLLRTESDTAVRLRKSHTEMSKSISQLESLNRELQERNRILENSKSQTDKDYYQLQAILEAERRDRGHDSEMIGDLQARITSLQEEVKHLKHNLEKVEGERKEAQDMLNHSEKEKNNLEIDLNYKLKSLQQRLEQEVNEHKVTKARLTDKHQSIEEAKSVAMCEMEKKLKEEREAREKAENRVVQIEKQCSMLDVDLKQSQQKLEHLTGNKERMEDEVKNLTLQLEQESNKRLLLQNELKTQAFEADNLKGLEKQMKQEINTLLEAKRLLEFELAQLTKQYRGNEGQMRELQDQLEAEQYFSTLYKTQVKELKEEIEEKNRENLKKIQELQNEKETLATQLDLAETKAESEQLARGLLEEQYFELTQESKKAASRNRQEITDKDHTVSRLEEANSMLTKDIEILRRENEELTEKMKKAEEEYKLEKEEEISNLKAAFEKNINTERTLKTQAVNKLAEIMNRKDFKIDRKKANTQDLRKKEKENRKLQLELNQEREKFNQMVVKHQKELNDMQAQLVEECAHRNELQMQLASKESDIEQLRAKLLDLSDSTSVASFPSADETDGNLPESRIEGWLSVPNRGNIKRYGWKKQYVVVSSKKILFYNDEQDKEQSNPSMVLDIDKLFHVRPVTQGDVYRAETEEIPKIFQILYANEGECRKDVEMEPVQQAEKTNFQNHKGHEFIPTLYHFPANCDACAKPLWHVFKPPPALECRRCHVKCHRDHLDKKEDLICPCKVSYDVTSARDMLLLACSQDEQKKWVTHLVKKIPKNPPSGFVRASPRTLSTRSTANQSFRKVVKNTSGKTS
Assay type: functional
The source made the active and inactive calls.
API: response.call in active, inactive

State the result this test recorded for CCC1CC(NS(=O)(=O)C2CC2)CC1c1ncc2cnc3[nH]ccc3n12 (centres undefined) . active

---

Test summary: THP-1 cell cytotoxicity, dose response, cytotoxicity control for non-replicating M. tuberculosis project (AID 489025)
Assay type: functional
Calls of active or inactive are those of the source.
Readout type: CC50

Take a look at these entries with their results.
Would you kindly share the measured CC50 for Clc1cccc(OCCN2CCN(CCOc3cccc(Cl)c3)CC2)c1 ? 31.3 µM (active)

Would you kindly share the measured CC50 for CCOC(=O)c1cnc(Nc2nc3ccccc3o2)nc1CSC(=S)N1CCCCC1 ? > 40 µM (active)

Would you kindly share the measured CC50 for COc1ccc(C(=O)Nc2ccccc2C(=O)N/N=C/c2ccccn2)cc1OC ? 5.29 µM (active)

Now examine the next entry.
Would you kindly share the measured CC50 for O=C(Nc1nnc(-c2ccccc2Cl)o1)c1ccc(S(=O)(=O)N2CCCCCC2)cc1 ? 3.49 µM (active)

---

Tested target: Serine/threonine-protein kinase pim-1 (Homo sapiens)
Sequence (P11309 whole entry): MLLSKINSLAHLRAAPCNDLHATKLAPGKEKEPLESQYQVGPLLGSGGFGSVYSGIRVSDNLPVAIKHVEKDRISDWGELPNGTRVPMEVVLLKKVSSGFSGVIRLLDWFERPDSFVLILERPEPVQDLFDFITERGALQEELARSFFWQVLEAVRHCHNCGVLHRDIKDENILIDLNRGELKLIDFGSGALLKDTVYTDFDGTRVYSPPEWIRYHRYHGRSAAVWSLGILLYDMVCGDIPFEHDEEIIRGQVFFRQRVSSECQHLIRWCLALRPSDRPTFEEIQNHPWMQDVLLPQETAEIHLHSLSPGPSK
Assay type: functional
The source made the active and inactive calls.
API: response.call in active, inactive

Consider the following illustrative entries.
State the result this test recorded for CCC1CC(NS(=O)(=O)C2CC2)CC1c1ncc2cnc3[nH]ccc3n12 (stereo not given) . inactive

State the result this test recorded for O=c1[nH]c2cc(Br)cnc2[nH]1 . active

Next:
State the result this test recorded for O=C(Nc1cccc(C(F)(F)F)n1)Nc1ccnc2cc(Cl)ccc12 . inactive

State the result this test recorded for O=c1cc(-c2ccc(F)cc2)[nH]c2c(-c3ccc(F)cc3)cnn12 . active

State the result this test recorded for O=C(Nc1cccc(C(F)(F)F)n1)Nc1ccnc2cc(OC(F)F)ccc12 . inactive

---

The entries below come with measured IC50 values attached.
Tested target: Sentrin-specific protease 8 (Homo sapiens);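 note: luminescence read-out of SENP8 inhibition, dose-response confirmation following an ultra-high-throughput screen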
Sequence (Q96LD8 whole entry): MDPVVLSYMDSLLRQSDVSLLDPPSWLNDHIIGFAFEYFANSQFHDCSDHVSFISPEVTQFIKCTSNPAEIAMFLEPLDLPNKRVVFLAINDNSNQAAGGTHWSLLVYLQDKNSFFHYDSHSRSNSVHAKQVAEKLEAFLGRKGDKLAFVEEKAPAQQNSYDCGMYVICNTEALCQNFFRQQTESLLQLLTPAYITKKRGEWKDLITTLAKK
Type: functional
Activity calls are given as the source filed them.

Take a look at these entries with their results.
Would you kindly share the measured IC50 for O=C(COC(=O)c1cccc(NC(=O)c2ccco2)c1)c1ccc(Br)cc1 ? 8.37 µM (active)

Would you kindly share the measured IC50 for COc1cccc(OCc2cc(/C=N/Nc3ccc(C(=O)O)cc3)ccc2OC)c1 ? 15.7 µM (active)

Would you kindly share the measured IC50 for COc1cc(O)c(CC=C(C)C)c(O)c1C(=O)CCc1ccc(O)cc1 [DIHYDROXANTHOHUMOL] ? 13.3 µM (active)

Would you kindly share the measured IC50 for Cc1ccc(Nc2nc(-c3cccnc3)cs2)cc1C ? 7.16 µM (active)

Would you kindly share the measured IC50 for O=C(O)c1ccc(N/N=C/c2cn(Cc3ccccc3F)c3ccccc23)cc1 ? 2.92 µM (active)

Would you kindly share the measured IC50 for Cc1ccnc(Nc2nc(-c3ccccc3)cs2)c1 ? 3.93 µM (active)

Next:
Would you kindly share the measured IC50 for Clc1ccc(COn2nnc3ccccc32)c(Cl)c1 ? 35.3 µM (active)

---

Tested target: Albumin (Bos taurus, UniProt P02769)
Sequence (P02769 whole entry): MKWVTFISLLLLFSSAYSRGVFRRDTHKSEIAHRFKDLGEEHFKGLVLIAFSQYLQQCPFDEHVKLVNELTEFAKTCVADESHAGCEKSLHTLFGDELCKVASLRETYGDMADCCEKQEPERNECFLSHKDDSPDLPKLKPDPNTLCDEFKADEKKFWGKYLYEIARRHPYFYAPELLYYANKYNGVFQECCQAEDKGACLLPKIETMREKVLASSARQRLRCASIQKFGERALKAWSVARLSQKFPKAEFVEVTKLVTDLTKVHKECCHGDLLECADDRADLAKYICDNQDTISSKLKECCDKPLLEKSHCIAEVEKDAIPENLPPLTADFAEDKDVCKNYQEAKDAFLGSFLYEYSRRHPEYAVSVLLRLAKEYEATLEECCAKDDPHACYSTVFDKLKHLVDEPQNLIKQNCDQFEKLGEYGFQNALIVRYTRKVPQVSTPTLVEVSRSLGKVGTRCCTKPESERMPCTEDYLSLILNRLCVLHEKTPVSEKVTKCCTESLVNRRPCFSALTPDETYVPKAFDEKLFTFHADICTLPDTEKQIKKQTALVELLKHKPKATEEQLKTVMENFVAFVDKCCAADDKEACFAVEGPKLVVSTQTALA
Test summary: Counterscreen for inhibitors of T-cell receptor (TCR)-CD3 interaction: Fluorescence-based biochemical high throughput dose response assay to identify inhibitors of T-cell receptor (TCR)-CD3 interaction using a TAMRA-labeled BSA probe.
Type: functional
The source made the active and inactive calls.
The entries below come with measured IC50 values attached.

Take a look at these entries with their results.
Would you kindly share the measured IC50 for O=C(N/N=C/c1cc([N+](=O)[O-])ccc1O)c1cccc(N2CCCC2=O)c1 ? > 94.1 µM (inactive)

Would you kindly share the measured IC50 for Cc1ccc(C(=O)NNC(=O)c2ccc3ccccc3c2O)cc1 ? > 94 µM (inactive)

Would you kindly share the measured IC50 for COc1ccc(C(=O)C=CNNC(=O)c2ccc(Cl)cc2)cc1 ? > 94.1 µM (inactive)

Now examine the next entry.
Would you kindly share the measured IC50 for CCc1ccccc1NC(=O)NNC(=O)c1ccc2ccccc2c1O ? > 94.1 µM (inactive)

src = ChEMBL document CHEMBL1201862
